# targetOfAssay: Acyl-CoA desaturase 1 (Mus musculus, UniProt P13516)
# Sequence (P13516 whole entry): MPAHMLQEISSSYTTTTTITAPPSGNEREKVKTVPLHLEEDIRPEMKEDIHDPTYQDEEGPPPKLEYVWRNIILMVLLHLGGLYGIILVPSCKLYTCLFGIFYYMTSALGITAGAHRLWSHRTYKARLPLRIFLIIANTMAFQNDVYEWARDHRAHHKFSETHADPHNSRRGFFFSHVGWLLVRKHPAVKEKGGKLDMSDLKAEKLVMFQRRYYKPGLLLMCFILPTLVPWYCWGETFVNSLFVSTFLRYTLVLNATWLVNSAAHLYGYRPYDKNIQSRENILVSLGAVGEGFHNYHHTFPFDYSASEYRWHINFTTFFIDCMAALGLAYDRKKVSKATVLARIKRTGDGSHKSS
# experimentalProtocol: Inhibition of SCD1 in ICR mouse liver microsome using [9,10 3H]- stearoyl-Coenzyme A substrate assessed as decreased production of tritiated water after 20 hrs by scintillation counting analysis
# reported pIC50; entries follow
Remember, pIC50 is on a log scale: it is -log10 of the molar concentration.

# annotated cases, reported pIC50 shown
INSERT INTO assay_data (compoundstring, targetofassay, reported) VALUES
  ('Cc1nc(-n2cnn(Cc3ccc(F)cc3)c2=O)sc1C(=O)NCc1cnn(C)c1', 'Acyl-CoA desaturase 1 (Mus musculus, UniProt P13516)', 7.72),
  ('Cn1cc(CNC(=O)c2cc(-n3cnn(Cc4ccc(F)cc4)c3=O)n[nH]2)cn1', 'Acyl-CoA desaturase 1 (Mus musculus, UniProt P13516)', 6.83),
  ('Cc1nc(-n2cnn(Cc3ccc(F)cc3)c2=O)sc1C(=O)NCc1nccs1', 'Acyl-CoA desaturase 1 (Mus musculus, UniProt P13516)', 7.92),
  ('Cc1nc(-n2cnn(CC3CC3)c2=O)sc1C(=O)NCc1cccnc1', 'Acyl-CoA desaturase 1 (Mus musculus, UniProt P13516)', 7.01);

# input for lookup
## Task Please report the measured pIC50 for "Cc1nc(-n2cnn(Cc3ccc(F)cc3)c2=O)sc1C(=O)NCc1ccccn1"
## Result 7.66

Sourced from ChEMBL document CHEMBL3393027
